Reference for the values: patent US9688764B2

molecular target: T1, hPRLR.mmh (soluble monomeric human PRLR) (Homo sapiens, UniProt P16471); assay: Surface plasmon resonance (Biacore T200), mAb-capture format; type: binding; conditions: 25° C., antibody-capture format, analyte hPRLR.mmh
T1 construct: soluble monomeric (hPRLR.mmh); mmh (myc-myc-hexahistidine)
T1 sequence (P16471 with tags, fused parts or gaps): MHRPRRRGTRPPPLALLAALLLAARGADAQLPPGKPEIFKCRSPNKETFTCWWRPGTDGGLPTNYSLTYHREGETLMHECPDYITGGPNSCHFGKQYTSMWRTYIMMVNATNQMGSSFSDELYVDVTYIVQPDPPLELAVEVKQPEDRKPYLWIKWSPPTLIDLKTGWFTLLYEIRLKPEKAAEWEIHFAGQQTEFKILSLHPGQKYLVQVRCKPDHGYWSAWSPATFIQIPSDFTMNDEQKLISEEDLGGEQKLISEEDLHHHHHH
Reported Kd values for the following molecules.
Numeric only. Scale: nM

H1H6958N2: human IgG1 Fc form of H2M6958N2; anti-PRLR, receptor blocking; HCVR/LCVR SEQ ID NOs 290/298 (antibody, V domains shown, human IgG1 Fc) VH: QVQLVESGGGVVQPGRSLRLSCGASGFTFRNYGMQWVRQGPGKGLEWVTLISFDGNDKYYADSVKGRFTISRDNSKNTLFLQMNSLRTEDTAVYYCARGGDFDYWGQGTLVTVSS VL: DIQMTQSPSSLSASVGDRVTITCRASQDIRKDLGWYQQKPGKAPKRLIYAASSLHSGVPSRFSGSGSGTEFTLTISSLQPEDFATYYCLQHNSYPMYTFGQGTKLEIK = 1.17

Report Kd, nothing else, for this molecule: H1H6801P: anti-PRLR antibody, human IgG1 Fc; HCVR/LCVR SEQ ID NOs 210/218 (antibody, V domains shown, human IgG1 Fc) VH: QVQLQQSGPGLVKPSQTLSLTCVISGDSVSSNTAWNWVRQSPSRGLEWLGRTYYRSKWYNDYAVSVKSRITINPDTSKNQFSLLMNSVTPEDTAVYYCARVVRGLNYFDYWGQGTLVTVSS VL: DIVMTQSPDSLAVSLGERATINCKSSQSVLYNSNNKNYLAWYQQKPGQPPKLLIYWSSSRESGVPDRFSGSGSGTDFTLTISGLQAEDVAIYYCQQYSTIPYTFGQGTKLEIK
0.894
